experiment: Quantitative High-Throughput drug screen in 47 multiple myeloma cell lines against the NCATS MIPE library collection: RPMI8226_ATCC cell viability assay (AID 1919871); settings: RPMI8226 myeloma viability, CellTiter-Glo ATP luminescence, 48 h; series mostly up to 45.8 µM; also: nearly all actives have a fitted effect of over 30% in size
Results filed as inconclusive are left out. Calls of active or inactive are those of the source. Calls follow the shape of the dose curve; as a rule, active = well fitted cell-killing curve with a large enough effect; inconclusive = small, poorly fitted or top-dose-only effect, or effect the other way; inactive = no such curve, though single readings can be large or run the other way. Residues, ends and D or L forms follow the SMILES beside them. *: point of attachment. Cbz = O=C(OCc1ccccc1)*
Allowed answers: Yes for active, No for inactive

Compound	Label
CC(C)C[C@@H](C=O)NC(=O)[C@H](CC(C)C)NC(=O)[C@H](CC(C)C)NC(=O)OCc1ccccc1 (Cbz-Leu-Leu-Leu-aldehyde)	Yes

Task: Please state the recorded outcome for this compound: "NC(=O)c1ncn([C@@H]2O[C@H](CO)[C@@H](O)[C@@H]2O)c1N"
Result: No

Task: Please state the recorded outcome for this compound: "CC(=O)OC[C@@H]1O[C@@H](n2ccc(=O)[nH]c2=O)[C@H](OC(C)=O)[C@H]1OC(C)=O"
Result: No

Task: Please state the recorded outcome for this compound: "O=C(O)CCCCCC(=O)NN=C1CCCC1"
Result: No

====

test: qHTS Screen of the MIPE 4.0 Collection Against Ewings Sarcoma (RDES) (AID 1259252); details: RD-ES Ewing sarcoma viability, CellTiter-Glo, 48 h; series mostly up to 45.8 µM; also: nearly all actives have a fitted effect of over 35% in size
Results filed as inconclusive are left out. Active and inactive are the calls of the source. Calls come from the whole dose curve; as a rule, active = well fitted inhibition curve with a large enough effect; inconclusive = small, poorly fitted or top-dose-only effect; inactive = no such curve, though single readings can be large or run the other way.
Allowed answers: active, inactive

Consider the following illustrative entries.
Compound	Label
NC(=O)c1ncn([C@@H]2O[C@H](CO)[C@@H](O)[C@@H]2O)c1O	inactive
Cc1cc(-c2nnc3n2CCCCC3)c(C)n1-c1ccccc1	inactive

Task: Please state the recorded outcome for this compound: "FC(F)(F)c1ccc(Nc2nc3ccc(Oc4ccnc(-c5ncc(C(F)(F)F)[nH]5)c4)cc3[nH]2)cc1"
Result: active

Task: Please state the recorded outcome for this compound: "NC(=O)c1cccc(-c2cccc(OC(=O)NC3CCCCC3)c2)c1"
Result: inactive

Task: Please state the recorded outcome for this compound: "C[C@]12CC[C@@H]3c4ccc(O)cc4CC[C@H]3[C@H]1CC[C@H]2O"
Result: active

Task: Please state the recorded outcome for this compound: "C=CC(=O)N1CCc2ccc(-n3c(=O)ccc4cnc5ccc(-c6cnn(C)c6)cc5c43)cc21"
Result: active

====

experiment: Quantitative High-Throughput drug screen in 47 multiple myeloma cell lines against the NCATS MIPE library collection: KMS11_JCRBsus cell viability assay (AID 1919873); conditions: KMS11 myeloma viability, CellTiter-Glo ATP luminescence, 48 h; series mostly up to 45.8 µM; also: nearly all actives have a fitted effect of over 50% in size
Results filed as inconclusive are left out. Activity calls are given as the source filed them. Calls come from the whole dose curve; as a rule, active = well fitted cell-killing curve with a large enough effect; inconclusive = small, poorly fitted or top-dose-only effect, or effect the other way; inactive = no such curve, though single readings can be large or run the other way.
Allowed answers: 1 (yes) for active, 0 (no) for inactive

Compound	Label
O=C(C[C@@H]1CC=CCCC(=O)O[C@H](c2ccccc2)CNC1=O)NCc1ccc(Cl)cc1	0 (no)
COc1cc(C[C@@H](CO)[C@H](CO)Cc2ccc(O)c(OC)c2)ccc1O	0 (no)
CCNC(=O)Nc1ccc(-c2nc3c(c(N4CCOC[C@H]4C)n2)CCN(C2COC2)C3)cc1	1 (yes)
CC(C=CC1=C(C)CCCC1(C)C)=CC=CC(C)=CC(=O)Nc1ccc(O)cc1	1 (yes)
CCOC(=O)C1=C(C)NC(=S)NC1c1cccc(O)c1 (stereo not drawn)	1 (yes)
Cc1ccccc1C(=O)Nc1ccc(C(=O)N2CCCC(O)c3cc(Cl)ccc32)c(C)c1 (stereo not drawn)	0 (no)
CCOC(=O)N1CCN([N+]([O-])=NOc2ccc([N+](=O)[O-])cc2[N+](=O)[O-])CC1	1 (yes)

Next item in the queue.
Task: Please state the recorded outcome for this compound: "Cc1ccc2nc(NCCN)c3ncc(C)n3c2c1"
Result: 1 (yes)

====

assay: Quantitative High-Throughput drug screen in 47 multiple myeloma cell lines against the NCATS MIPE library collection: VP6_DJ cell viability assay (AID 1919867); details: ATP luminescence, 48 h; series mostly up to 45.8 µM; also: nearly all actives have a fitted effect of over 40% in size; also: potency is read from the fitted curve at half-maximal effect
Results filed as inconclusive are left out. Activity calls are given as the source filed them. Calls follow the shape of the dose curve; as a rule, active = well fitted cell-killing curve with a large enough effect; inconclusive = small, poorly fitted or top-dose-only effect, or effect the other way; inactive = no such curve, though single readings can be large or run the other way.

Structure Smiles String	Potency
NC[C@H]1O[C@H](O[C@H]2[C@@H](O)[C@@H](O[C@H]3O[C@H](CO)[C@@H](O)[C@H](N)[C@@H]3O)[C@H](N)C[C@@H]2N)[C@H](N)C[C@H]1O	inactive
NC(=O)c1cccc(-c2cccc(OC(=O)NC3CCCCC3)c2)c1	inactive
CCN(CC)Cc1ccc2cc(COC(=O)Nc3ccc(C(=O)NO)cc3)ccc2c1	132 nM (active)

====

assay: Quantitative High-Throughput drug screen in 47 multiple myeloma cell lines against the NCATS MIPE library collection: OCIMY5_PLB cell viability assay (AID 1918988); details: OCI-MY5 myeloma viability, ATP luminescence, 48 h; series mostly up to 45.8 µM; also: nearly all actives have a fitted effect of over 65% in size; also: potency is read from the fitted curve at half-maximal effect
Results filed as inconclusive are left out. Active and inactive are the calls of the source. Calls follow the shape of the dose curve; as a rule, active = well fitted cell-killing curve with a large enough effect; inconclusive = small, poorly fitted or top-dose-only effect, or effect the other way; inactive = no such curve, though single readings can be large or run the other way.
Property: Potency

Past entries and their recorded results:
Compound	Property	Result
CCCCCCCCc1ccc(CCC(N)(CO)CO)cc1	Potency	14800 nM (active)
CS(=O)(=O)N1CCc2c(-c3cnc(N)nc3)nc(N3CCOCC3)nc21	Potency	332 nM (active)
COc1cc([C@@H]2c3cc4c(cc3[C@H](O)[C@H]3COC(=O)[C@@H]23)OCO4)cc(OC)c1OC	Potency	29.6 nM (active)
COc1cccc2c1C(=O)c1c(O)c3c(c(O)c1C2=O)C[C@@](O)(C(=O)CO)C[C@@H]3O[C@H]1C[C@H](N)[C@H](OC2CCCCO2)[C@H](C)O1 (stereo partly specified)	Potency	2090 nM (active)
CC(=O)OC[C@@H]1O[C@@H](n2ccc(=O)[nH]c2=O)[C@H](OC(C)=O)[C@H]1OC(C)=O	Potency	inactive
CN1CCCN(C(=O)c2cccc(-c3ccc(C=C4C(=O)Nc5ccc(Cl)cc54)o3)c2)CC1	Potency	9350 nM (active)

Task: Look at this compound and give its reported Potency. "C=C1C[C@@]2(O)O[C@@]3(C[C@H]2C(C)C)[C@H](C)CC[C@H]13"
Result: inactive

Task: Look at this compound and give its reported Potency. CCOC(=O)C1=C(C)NC(=S)NC1c1cccc(O)c1 (stereo unspecified)
Result: 23.5 nM (active)

Task: Look at this compound and give its reported Potency. "C=CC1=C(C(=O)O)N2C(=O)[C@@H](NC(=O)C(=NO)c3csc(N)n3)[C@H]2SC1"
Result: inactive

Task: Look at this compound and give its reported Potency. "Cn1cc(-c2cnn3c(N)c(Br)c([C@H]4CCCNC4)nc23)cn1"
Result: 332 nM (active)

Task: Look at this compound and give its reported Potency. "COc1ccc(C[C@@H](C)[C@@H](C)Cc2ccc(OC)c(OC)c2)cc1OC"
Result: 469 nM (active)

====

experiment: Quantitative High-Throughput drug screen in 47 multiple myeloma cell lines against the NCATS MIPE library collection: Karpas25_ECACC cell viability assay (AID 1918968; also: nearly all actives have a fitted effect of over 35% in size; also: potency is read from the fitted curve at half-maximal effect); conditions: Karpas25 myeloma viability, CellTiter-Glo ATP, 48 h; series mostly up to 45.8 µM
Records with an inconclusive call do not appear. Activity calls are given as the source filed them. The call rests on the fitted dose curve; in most records, active means well fitted cell-killing curve with a large enough effect; inconclusive means small, poorly fitted or top-dose-only effect, or effect the other way; inactive means no such curve, though single readings can be large or run the other way.
Property: Potency

Past entries and their recorded results:
Compound	Result
O=C(CCCCCCC(=O)Nc1cccnc1)NO	1.66 µM (active)
c1cncc(CN2CCC(n3ncc4c(N5CCOCC5)nc(-c5ccc6[nH]ccc6c5)nc43)CC2)c1	2.35 µM (active)
Nc1ccn(C2CO[C@H](CO)O2)c(=O)n1 (some centres undefined)	inactive
COc1cc(N2CCC(C(N)=O)CC2)ccc1Nc1nc(N)c(Cl)c(Nc2ccccc2S(=O)(=O)C(C)C)n1	0.235 µM (active)

Task: Look at this compound and give its reported Potency. "COc1ccc(CCC(=O)c2c(O)cc(O[C@@H]3O[C@H](CO)[C@@H](O)[C@H](O)[C@@H]3O[C@@H]3O[C@@H](C)[C@H](O)[C@@H](O)[C@@H]3O)cc2O)cc1O"
Result: 9.35 µM (active)

Task: Look at this compound and give its reported Potency. "O=C(O)C(=O)Nc1cccc(C2=NN=N[N]2)c1"
Result: inactive

Task: Look at this compound and give its reported Potency. "COc1cc2ncnc(Nc3cccc(Br)c3)c2cc1OC"
Result: 0.526 µM (active)

Task: Look at this compound and give its reported Potency. "FC(F)c1nc2ccccc2n1-c1nc(N2CCOCC2)nc(N2CCOCC2)n1"
Result: 0.0935 µM (active)

Task: Look at this compound and give its reported Potency. CC(N[C@H]1CCCC[C@H]1NC(=O)c1ccc(Cl)cc1)c1cccc2ccccc12 (some centres undefined)
Result: 14.8 µM (active)

====

experiment: Quantitative High-Throughput drug screen in 47 multiple myeloma cell lines against the NCATS MIPE library collection: OPM1_PLB cell viability assay (AID 1918989); settings: CellTiter-Glo, 48 h; series mostly up to 45.8 µM; also: nearly all actives have a fitted effect of over 40% in size
Results filed as inconclusive are left out. The source made the active and inactive calls. The call rests on the fitted dose curve; in most records, active means well fitted cell-killing curve with a large enough effect; inconclusive means small, poorly fitted or top-dose-only effect, or effect the other way; inactive means no such curve, though single readings can be large or run the other way.
Allowed answers: active, inactive

Consider the following illustrative entries.
Structure Smiles String	Label
Cn1cnc2c(F)c(Nc3ccc(Br)cc3F)c(C(=O)NOCCO)cc21	inactive
Cc1cnc(Nc2ccc(N3CCN(C)CC3)cc2)nc1Nc1cccc(S(=O)(=O)NC(C)(C)C)c1	active
O=C(O)C(=O)Nc1cccc(C2=NN=N[N]2)c1	inactive
NC1=N[C@H]2[C@H](CS[C@H]2CCCCC(=O)O)N1	inactive
Cc1cnn(C)c1C(=O)Nc1cc(Nc2ccc3c(C=Cc4ccccn4)n[nH]c3c2)ccc1F	active

Next item in the queue.
Task: Please state the recorded outcome for this molecule: "COC(=O)[C@@H]1[C@H]2C[C@@H]3c4[nH]c5ccccc5c4CCN3C[C@@H]2CC[C@@H]1O"
Result: inactive
